Measured values drawn from paper PMC5926251 for this set.

Assign pIC50 to each entry below.
Biological target: DNA polymerase α (Bos taurus)
Assay: DNA polymerase assay, pol. α
Format: biochemical, calf
Conditions: IC50 Pol. α, 50%-inhibitory concentration; Table I
Keep it numeric: pIC50 is minus log10 of the concentration in mol/L.

Item CCCCCCCCCCCCCC(=O)O [Myristic acid (14:0), Myristic acid, reference compound] ; assay system DNA polymerase α (Bos taurus); pIC50 reported as 4.02

Param item: CCCCCCCCCCCCCCCC(=O)O [Palmitic acid (16:0), Palmitic acid, reference compound] ; param system: DNA polymerase α (Bos taurus); output pIC50: 4.38

---

Give measured IC50 for each item. Keep answers brief.
Molecular target: DNA polymerase α (Bos taurus, UniProt A0AAA9TD94)
Sequence (A0AAA9TD94 1-1441): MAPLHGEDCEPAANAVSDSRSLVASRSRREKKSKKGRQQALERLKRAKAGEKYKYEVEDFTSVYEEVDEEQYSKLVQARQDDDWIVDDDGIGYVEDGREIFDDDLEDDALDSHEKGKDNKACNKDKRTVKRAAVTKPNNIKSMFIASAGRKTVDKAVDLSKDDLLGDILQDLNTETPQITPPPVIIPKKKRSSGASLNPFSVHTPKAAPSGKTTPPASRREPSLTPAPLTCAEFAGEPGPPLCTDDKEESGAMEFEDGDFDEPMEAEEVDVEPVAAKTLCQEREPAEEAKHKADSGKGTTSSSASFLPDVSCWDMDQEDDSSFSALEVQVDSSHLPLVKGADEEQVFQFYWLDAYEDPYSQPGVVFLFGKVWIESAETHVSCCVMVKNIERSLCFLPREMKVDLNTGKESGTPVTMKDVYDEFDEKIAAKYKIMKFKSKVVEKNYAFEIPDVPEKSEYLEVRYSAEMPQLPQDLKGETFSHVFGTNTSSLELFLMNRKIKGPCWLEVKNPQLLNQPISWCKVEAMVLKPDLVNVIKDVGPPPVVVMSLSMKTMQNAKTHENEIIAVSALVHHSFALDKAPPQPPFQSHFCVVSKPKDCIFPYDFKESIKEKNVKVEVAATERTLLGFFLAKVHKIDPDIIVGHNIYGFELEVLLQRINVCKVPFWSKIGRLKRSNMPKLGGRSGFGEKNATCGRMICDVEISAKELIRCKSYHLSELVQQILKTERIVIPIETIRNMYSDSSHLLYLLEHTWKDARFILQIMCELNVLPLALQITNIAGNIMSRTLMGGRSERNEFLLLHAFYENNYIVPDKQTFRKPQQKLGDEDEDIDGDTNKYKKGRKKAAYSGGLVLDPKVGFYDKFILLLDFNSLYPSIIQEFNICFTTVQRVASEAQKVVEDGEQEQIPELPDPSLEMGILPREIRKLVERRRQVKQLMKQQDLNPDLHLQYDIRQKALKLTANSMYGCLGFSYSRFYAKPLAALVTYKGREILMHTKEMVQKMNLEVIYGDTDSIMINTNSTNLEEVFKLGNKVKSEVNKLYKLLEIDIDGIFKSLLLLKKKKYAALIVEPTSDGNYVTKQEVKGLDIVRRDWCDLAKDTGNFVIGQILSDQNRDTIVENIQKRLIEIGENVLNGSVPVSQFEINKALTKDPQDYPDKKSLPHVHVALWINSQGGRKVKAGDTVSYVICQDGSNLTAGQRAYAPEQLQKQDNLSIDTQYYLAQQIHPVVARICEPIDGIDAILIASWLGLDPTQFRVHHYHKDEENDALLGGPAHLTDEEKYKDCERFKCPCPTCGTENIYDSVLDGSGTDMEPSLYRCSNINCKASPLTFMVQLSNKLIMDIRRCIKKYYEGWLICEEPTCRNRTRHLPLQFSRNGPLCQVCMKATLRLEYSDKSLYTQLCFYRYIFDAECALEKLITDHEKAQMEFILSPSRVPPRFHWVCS
Assay: DNA polymerase assay, pol. α
Format: biochemical, calf
Details: read-out: IC50 Pol. α; 50%-inhibitory concentration; Table I
Give the value in µM but do not write µM after it.

Observed IC50 on DNA polymerase α (Bos taurus, UniProt A0AAA9TD94), entry CCCCCCCCCCCCCC(=O)OCC(CO)OC(=O)CCCCCCCCCCCCC (stereo not shown) , equals 550

Form field, IC50 with DNA polymerase α (Bos taurus, UniProt A0AAA9TD94), item CCCCCCCCCCCCCCCCCC(=O)OCC(O)CO (stereo not shown) : 650
